B1: Transcription intermediary factor 1-beta, residues 620 to 671; numbered along this chain, Q13263 (parent)
chain: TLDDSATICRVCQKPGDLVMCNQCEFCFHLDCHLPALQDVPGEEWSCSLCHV

variants of: B1; experiment: abundance fitness (aPCA) (normalised: wild type 0, dead -1); higher = more abundant; growth selection in yeast, the domain comes from the species named; details: Homo sapiens
quantity_kind: abundance fitness
In your answer, state the number alone without any accompanying words.

Some variants with recorded abundance fitness:
> print(dat)
   sequence.variant  number
1              H29A   -1.01
2              V11D  -0.484

Which abundance fitness is listed for `L34N` ?
0.543
